experiment: NCI Yeast Anticancer Drug Screen. Data for the CLN2oe strain (AID 163);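 note: 0% = growth of vehicle-only control cultures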
measurement_setup: S. cerevisiae CLN2oe strain, at 3.7 µM, hits give high values
Compounds without any hit were thinned out: in the full panel of roughly 79,000, 15% have a hit.
metric_name: growth inhibition (%)
Give the value, in units of %, as a plain number.

**Query** // growth inhibition lookup, key: O=C(O)c1ccccc1-c1ccccc1C(=O)Nc1ccc2c(c1)Cc1ccccc1-2
**Result** 10

**Query** // query growth inhibition value for entry COc1ccc(C2c3cc4c(cc3OC(C)(O)C2C)OCO4)c(OC)c1 (configuration not stated)
**Result** -12

**Query** What does the record list as growth inhibition for O=C(NNc1ccnc2cc(Cl)ccc12)/C(=C\c1ccccc1Cl)NC(=O)c1ccccc1 ?
**Result** 32

**Query** # get_value(readout='growth inhibition', item= COc1ccc2ccc3ccccc3c2c1C=O )
**Result** -6

**Query** Fill blank: measured growth inhibition of the compound CCN(CC)CC[n+]1ccc2c(C)c3[nH]c4ccc(O)cc4c3c(C)c2c1 is ____.
**Result** -4

**Query** May I ask what growth inhibition has been recorded for CCCCc1cc(O)ccc1O ?
**Result** 1

**Query** Item under review: O=C1C2C=CC1C1C(=O)OC(=O)C21 (configuration not stated) . Reported growth inhibition?
**Result** -6

**Query** // lookup growth inhibition for Cc1cc(CO)c(O)c(CNCc2cc(C)cc(CO)c2O)c1
**Result** -24

**Query** Which measured growth inhibition value corresponds to Cc1ccc(Cl)c2[nH]c(-c3ccccc3)cc(=O)c12 ?
**Result** -5

**Query** Which growth inhibition reading was recorded for the compound OCC(Cn1cncn1)(c1ccc(F)cc1F)n1cncn1 (configuration not stated) ?
**Result** 51

**Query** Tell me the measured growth inhibition of Oc1ccc(NCn2c(=S)sc3ccccc32)cc1 , please.
**Result** -13

**Query** GET /values?readout=growth inhibition&item= COc1ccc(N=C2C(=O)Nc3ccc(Br)cc32)cc1
**Result** 23

###

experiment: NCI Yeast Anticancer Drug Screen. Data for the rad14 strain (AID 159);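 note: 0% = growth of vehicle-treated control cultures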
measurement_setup: S. cerevisiae rad14 strain growth inhibition; at 33.0 µM
Compounds without any hit were thinned out: in the full panel of roughly 79,000, 15% have a hit. Active and inactive are the calls of the source. Cut-off read from the data, not from the text of the source: active = growth inhibition above about 70%; inactive = the rest.
I would appreciate it if you answered using one of these outcomes: Yes for active, No for inactive

**Query** Any idea what this test logged for COC(=O)c1ccc(CCC2=CC(=O)C(Br)=CC2=O)cc1 ?
**Result** No

**Query** For this compound, state the assay outcome: O=C(c1ccc(Cl)cc1)C1OC12C(=O)Nc1ccccc12 (stereo not given)
**Result** Yes

**Query** For COCCOC(=O)CCn1cc(F)c(=O)[nH]c1=O , which call appears in the assay record?
**Result** No

**Query** For this compound, state the assay outcome: S=C(N/N=C(/c1ccccc1)c1ccccn1)N1CCCCCC1
**Result** No

**Query** What did this assay record as the result for Cc1ccc(Nc2nc3c(=O)n(C)c(=O)n(C)c3nc2Nc2ccc(C)cc2)cc1 ?
**Result** No

**Query** Tell me the assay call for O=C(NC(Nc1ccc(F)c(Cl)c1)(C(F)(F)F)C(F)(F)F)C(C(F)(F)F)C(F)(F)F please.
**Result** Yes

**Query** Kindly provide the recorded test outcome for the following compound: Cc1cc(N=Nc2ccc(S(=O)(=O)[O-])cc2)cc(C(=O)[O-])c1[O-].NC1CCCCC1N.[Na+].[Pt+4]
**Result** Yes

**Query** For NC1=NS(=O)(=O)N=C(N)C1=Cc1ccc([N+](=O)[O-])o1 , what call appears in the results of this test?
**Result** No

**Query** Call for entry c1ccc(-c2ccnc3c2ccc2c(-c4ccccc4)ccnc23)cc1 :
**Result** Yes

**Query** Given C=C(CN(C)C)C(=O)c1cc(C)ccc1C , state the outcome it received in this test.
**Result** Yes

###

experiment: NCI Yeast Anticancer Drug Screen. Data for the rad14 strain (AID 159);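 note: 0% = growth of vehicle-treated control cultures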
measurement_setup: S. cerevisiae rad14 strain growth inhibition; at 1.2 µM; hits give high values
The panel holds about 79,000 compounds, 15% with a hit somewhere; the sample as a whole holds those more often.
metric_name: growth inhibition (%)
Only the number, expressed in %, is required.

**Query** What value of growth inhibition has been recorded for this entry: CN(Cc1cnc2nc(N)nc(N)c2n1)c1ccc(C(=O)N[C@@H](CCC(=O)O)C(=O)O)cc1
**Result** -1

**Query** Fill in: growth inhibition of COc1ccc2nc3c([N+](=O)[O-])ccc(NCCN(C)C)c3c(NCCN(C)C)c2c1 is ___
**Result** -2

**Query** Please report the recorded growth inhibition for CC(=O)OCCOCNC(=S)N/N=C(\C)c1cnccn1 .
**Result** -8

**Query** // growth inhibition lookup, key: CC(=O)[O][Bi]([c]1ccccc1)[c]1ccccc1
**Result** 39

**Query** Bench note: what growth inhibition did Cn1c2ccccc2c(=O)c2cc(NC(=O)CCCCC(=O)Nc3ccc4c(c3)c(=O)c3ccccc3n4C)ccc21 show?
**Result** -1

**Query** Could you tell me which growth inhibition is on file for O=C1c2ccccc2-c2n[nH]c3cccc1c23 ?
**Result** -18

**Query** // growth inhibition lookup, key: O=C1OC(=O)C2CCCC3CCCC1C32 (stereo unspecified)
**Result** 17

**Query** Name the recorded growth inhibition for O=C(NCCCNCCCNC(=O)c1cc(-c2ccccc2)nc2ccccc12)c1cc(-c2ccccc2)nc2ccccc12 .
**Result** -1

**Query** What value of growth inhibition has been reported for the following molecule? C#CCCCc1ccccc1
**Result** -36

**Query** Given the molecule COc1ccc(/C=C2\SC(=S)N(/C=C/c3nc4ccccc4[nH]c3=O)C2=O)cc1OC , what is its reported growth inhibition?
**Result** 3

**Query** I would be grateful if you could share the reported growth inhibition for OC1CSCCCSCCSCCCSC1 .
**Result** -35

**Query** Return reported growth inhibition; argument: CC1C(NNc2ccccc2)Oc2cc3c(cc2C1c1ccccc1O)OCO3 (stereo unspecified)
**Result** -4

**Query** Given the entry CN(C)CCn1c2c3ccccc3ccc2c2oc(=O)c3ccccc3c21 , report its measured growth inhibition.
**Result** 3

**Query** Param item = O=C(Nc1ccccc1)C(=O)C(C(=O)c1ccccc1)C(c1ccccc1)c1ccccc1 (stereo unspecified) ; retrieve measured growth inhibition.
**Result** 3

**Query** # get_value(readout='growth inhibition', item= CN(N=O)N1C(=O)SCC(c2ccccc2)(c2ccccc2)C1=O )
**Result** 1

**Query** State the recorded growth inhibition for this entry: [N-]=N[N+]#I1OC(C(F)(F)F)(C(F)(F)F)c2ccccc21
**Result** 27

**Query** Reported growth inhibition for CSC(=S)Nc1cccc(C)n1 : what is it?
**Result** -19

**Query** Fill in: growth inhibition of O=C(CCCN1CCC(O)(c2ccc(Cl)cc2)CC1)c1ccc(F)cc1 is ___
**Result** 50

**Query** What does the record list as growth inhibition for O=C(c1ccc(Cl)cc1Cl)C(Cl)Cl ?
**Result** -17

**Query** Suppose we examine the molecule S=c1[nH]nc(Nc2ccc(Cl)cc2)s1 ; what growth inhibition value has been reported?
**Result** -3

**Query** Returns the measured growth inhibition for the input molecule. Input: CC(C)c1cc(C(C)C)c(O)c(C([O-])[O-])c1.CC(C)c1cc(C(C)C)c(O)c(C([O-])[O-])c1.CC(C)c1cc(C(C)C)c(O)c(C([OH2+])[OH2+])c1.CC(C)c1cc(C(C)C)c(O)c(C([OH2+])[OH2+])c1.[Cu+2].[Cu+2].[OH3+].[OH3+]
**Result** 5

###

experiment: NCI Yeast Anticancer Drug Screen. Data for the rad18 strain (AID 177)
measurement_setup: S. cerevisiae rad18 mutant growth inhibition; at 1.2 µM; hits give high values
This is part of a sample that, as a whole, favours compounds with a hit. Of some 79,000 tested, about 15% had one in any assay. Calls of active or inactive are those of the source. No stated cut-off is given here; in the data, active means growth inhibition above about 70%; inactive means the rest.
So I've got a bunch of compounds here, and I need their growth inhibition values.

**Query** Tell me the measured growth inhibition of CC(=O)OC1CCC2(C)C(=CCC3C4CCC5(OC6CC(C)CN(C(C)=O)C6C5C)C(C)=C4C(=O)C32)C1 (stereo unspecified) , please.
**Result** -1% (inactive)

**Query** What measured growth inhibition goes with O=C1OC(=O)C2CCCC3CCCC1C32 (stereo unspecified) ?
**Result** 25% (inactive)

**Query** Item under review: Cc1ccc2ccc3cccc4ccc1c2c34 . Reported growth inhibition?
**Result** -4% (inactive)

**Query** Need growth inhibition of CC1OCC2OC(C)OC(C3C4=C(CC(C)(C)CC4=O)OC4=C3C(=O)CC(C)(C)C4)C2O1 (stereo unspecified) , thanks.
**Result** 3% (inactive)

**Query** # input compound: CCN(CC)CCC(=O)c1ccc(Oc2ccc(F)cc2)cc1 ; wanted: its growth inhibition
**Result** 4% (inactive)

**Query** Name the reported growth inhibition value associated with the compound CCN(CC)[P+](c1ccccc1O)(N(CC)CC)N(CC)CC
**Result** -6% (inactive)
